Reference for the values: paper PMC6561178

# MEASURED ON: T1, Cc78 (Caulobacter crescentus NA1000, UniProt B8GW92 1-78, del79-82)
# T1 sequence: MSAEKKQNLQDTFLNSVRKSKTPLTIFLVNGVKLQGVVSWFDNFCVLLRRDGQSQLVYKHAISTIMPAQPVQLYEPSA
# METHOD: EMSA; Hill n 3.5; EMSA: 34 mM Tris-HCl pH 7.5, 50 mM NaCl, 50 mM KCl, 50 mM NH4Cl, 11.4 mM EDTA, 12% glycerol, 30 C, 30 min, ~1 nM 32P-RNA, Kd in Hfq6; anisotropy: 10 mM Tris-HCl
# CONDITION: protein: recombinant; tags: untagged after self-cleaved intein; chain copies: 6; label: 32P; stem-loops
REPORTED METRIC: Kd (nM)
Quick reminder: number only, in nM, skip the unit.

Query: Note Kd for the binder shown: ChiX (structured_RNA) RNA: GGGACACCGUCGCUUAAAGUGACGGCAUAAUAAUAAAAAAAUGAAAUUCCUCUUUGACGGGCCAAUAGCGAUAUUGGCCAUUUUUUU
Result: 32.4
